# measurementDescription: Drug uptake in anesthetized cynomolgus monkey brain occipital lobe after 65 mins postinjection
# Assay type: ADME, organism-based, Macaca fascicularis
# appliedConditions: in vivo
So basically, if Drug uptake comes in under 3 it's true, and if it's 3 or more it's false.

### Prompt API: query returns whether the compound falls strictly under 3 in Drug uptake. Query: O=C(OCC[18F])C1C2CCC(CC1c1ccc(/C=C\I)cc1)N2 (stereo not given)
### Response true

### Prompt API: query returns whether the compound falls strictly under 3 in Drug uptake. Query: O=C(OCC[18F])C1C2CCC(CC1c1cccc(/C=C\I)c1)N2 (stereo not given)
### Response true

### Prompt API: query returns whether the compound falls strictly under 3 in Drug uptake. Query: O=C(OCC[18F])C1C2CCC(CC1c1cccc(/C=C\Br)c1)N2 (stereo not given)
### Response false

### Prompt API: query returns whether the compound falls strictly under 3 in Drug uptake. Query: O=C(OCCC[18F])C1C2CCC(CC1c1cccc(/C=C\Br)c1)N2 (stereo not given)
### Response false

### Prompt API: query returns whether the compound falls strictly under 3 in Drug uptake. Query: O=C(OCCC[18F])C1C2CCC(CC1c1cccc(/C=C\I)c1)N2 (stereo not given)
### Response false
